Target: UniProt:Q96EB6
Sequence (Q96EB6 1-747): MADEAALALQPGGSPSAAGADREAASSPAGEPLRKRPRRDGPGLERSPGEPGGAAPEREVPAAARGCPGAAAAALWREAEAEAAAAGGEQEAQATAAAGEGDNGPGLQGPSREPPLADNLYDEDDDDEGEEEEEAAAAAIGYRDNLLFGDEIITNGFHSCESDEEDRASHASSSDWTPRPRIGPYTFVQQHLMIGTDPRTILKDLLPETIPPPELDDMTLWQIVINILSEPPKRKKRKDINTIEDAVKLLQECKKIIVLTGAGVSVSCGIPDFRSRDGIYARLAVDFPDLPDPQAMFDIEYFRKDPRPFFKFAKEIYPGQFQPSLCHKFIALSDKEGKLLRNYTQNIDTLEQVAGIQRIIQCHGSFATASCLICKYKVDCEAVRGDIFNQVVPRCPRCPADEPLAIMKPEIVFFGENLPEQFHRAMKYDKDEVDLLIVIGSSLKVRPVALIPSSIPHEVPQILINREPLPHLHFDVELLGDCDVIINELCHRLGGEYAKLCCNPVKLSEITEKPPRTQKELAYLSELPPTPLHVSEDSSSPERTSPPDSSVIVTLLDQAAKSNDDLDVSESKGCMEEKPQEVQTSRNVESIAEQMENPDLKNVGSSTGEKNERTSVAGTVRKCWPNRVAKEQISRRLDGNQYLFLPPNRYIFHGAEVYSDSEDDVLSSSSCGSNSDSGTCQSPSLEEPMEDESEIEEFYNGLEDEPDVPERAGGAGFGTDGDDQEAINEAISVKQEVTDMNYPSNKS
Assay: mass spectrometry based assay to identify modulators of SIRT1 activity
Format: biochemical
Conditions: 25 min; percent maximum fold activation of SIRT1; read-out: SIRT1 % FOLD ACT.

Compound: Cc1nc2cccc(NC(=O)c3cscn3)c2c(=O)n1-c1cccc(C(F)(F)F)c1
Emax: > 150%

Compound: Cc1nc2cccc(NC(=O)c3cscn3)c2c(=O)n1-c1cccc(OC(F)(F)F)c1
Emax: < 150%

Compound: Cc1nc2cccc(NC(=O)c3cccc(OCC(O)CO)n3)c2c(=O)n1-c1cccc(C(F)(F)F)c1 (stereo not drawn)
Emax: > 150%
